assay: OHB reductase activity, NADH absorption at 340 nm; format: biochemical; conditions: when not saturated, activity estimated at 20 mM substrate
measure_name: Max. specific activity, OHB (µmol/mg/min)
Form entry: value (µmol/mg/min) — number only.

// lookup Max. specific activity, OHB for Ec-LdhA: (D)-lactate dehydrogenase from Escherichia coli, SEQ ID NO: 4 (protein, listed as Escherichia coli) MKLAVYSTKQYDKKYLQQVNESFGFELEFFDFLLTEKTAKTANGCEAVCIFVNDDGSRPVLEELKKHGVKYIALRCAGFNNVDLDAAKELGLKVVRVPAYDPEAVAEHAIGMMMTLNRRIHRAYQRTRDANFSLEGLTGFTMYGKTAGVIGTGKIGVAMLRILKGFGMRLLAFDPYPSAAALELGVEYVDLPTLFSESDVISLHCPLTPENYHLLNEAAFEQMKNGVMIVNTSRGALIDSQAAIEALKNQKIGSLGMDVYENERDLFFEDKSNDVIQDDVFRRLSACHNVLFTGHQAFLTAEALTSISQTTLQNLSNLEKGETCPNELV
0.56
